- MEASURED ON: GST-Hu-p50 (Homo sapiens, UniProt P19838 7-356)
- Sequence (P19838 7-356): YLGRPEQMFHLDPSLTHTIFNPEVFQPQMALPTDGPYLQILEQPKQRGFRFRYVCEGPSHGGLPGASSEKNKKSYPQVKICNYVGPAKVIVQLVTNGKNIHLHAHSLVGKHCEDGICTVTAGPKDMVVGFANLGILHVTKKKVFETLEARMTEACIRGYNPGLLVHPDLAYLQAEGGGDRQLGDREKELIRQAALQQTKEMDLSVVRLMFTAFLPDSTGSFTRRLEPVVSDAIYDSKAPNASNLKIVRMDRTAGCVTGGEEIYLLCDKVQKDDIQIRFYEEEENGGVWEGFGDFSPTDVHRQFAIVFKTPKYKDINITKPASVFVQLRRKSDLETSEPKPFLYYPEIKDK
- PROTOCOL SUMMARY: protein-binding microarray (PBM); PBM: ~300 nM protein, 6 mM HEPES pH 7.8, 80 mM KCl, 0.5 mM EDTA, 0.5 mM EGTA, 6% glycerol, 35 ng/ul poly-dIdC, 1% milk, 1 h, room temperature; Ap Aiptasia and Nv Nematostella (sea anemones) / Co Capsaspora / Aq Amphimedon (sponge) / Dm Drosophila / Hu human; RHD is the Rel homology domain; high values mean tight binding
- CONDITION CONTEXT: dsDNA, one strand shown
Quick rule for you: binding signal under 4 z-score gets y, anything else gets n.

Field: below-cutoff. Rule: recorded binding signal strictly less than 4 z-score. Subject: `CCGATTAACATCAAAAAATTACCTGATGTTAATCGGGTCTTGATTCGCTTGACGCTGCTG`
n

Field: below-cutoff. Rule: recorded binding signal strictly less than 4 z-score. Subject: `CCGATTAACATCAGGAAACTACCTGATGTTAATCGGGTCTTGATTCGCTTGACGCTGCTG`
y

Field: below-cutoff. Rule: recorded binding signal strictly less than 4 z-score. Subject: `CCGATTAACATCAAAGGGAATTCTGATGTTAATCGGGTCTTGATTCGCTTGACGCTGCTG`
n

Field: below-cutoff. Rule: recorded binding signal strictly less than 4 z-score. Subject: `CCGATTAACATCAACCACCCCCCTGATGTTAATCGGGTCTTGATTCGCTTGACGCTGCTG`
n

Field: below-cutoff. Rule: recorded binding signal strictly less than 4 z-score. Subject: `CCGATTAACATCAAGGGAATACCTGATGTTAATCGGGTCTTGATTCGCTTGACGCTGCTG`
y

Field: below-cutoff. Rule: recorded binding signal strictly less than 4 z-score. Subject: `CCGATTAACATCAGGGGGGCACCTGATGTTAATCGGGTCTTGATTCGCTTGACGCTGCTG`
y

Field: below-cutoff. Rule: recorded binding signal strictly less than 4 z-score. Subject: `CCGATTAACATCAAGGGGGGTGGTGATGTTAATCGGGTCTTGATTCGCTTGACGCTGCTG`
n

Field: below-cutoff. Rule: recorded binding signal strictly less than 4 z-score. Subject: `CCGATTAACATCAGGGGAGTACATGATGTTAATCGGGTCTTGATTCGCTTGACGCTGCTG`
y

Field: below-cutoff. Rule: recorded binding signal strictly less than 4 z-score. Subject: `CCGATTAACATCAAAAGACCCCCTGATGTTAATCGGGTCTTGATTCGCTTGACGCTGCTG`
n

Field: below-cutoff. Rule: recorded binding signal strictly less than 4 z-score. Subject: `CCGATTAACATCAGGGCGTCCCCTGATGTTAATCGGGTCTTGATTCGCTTGACGCTGCTG`
n

Field: below-cutoff. Rule: recorded binding signal strictly less than 4 z-score. Subject: `CCGATTAACATCACCAAATTCCCTGATGTTAATCGGGTCTTGATTCGCTTGACGCTGCTG`
n

Field: below-cutoff. Rule: recorded binding signal strictly less than 4 z-score. Subject: `CCGATTAACATCAATTTCCCGTATGATGTTAATCGGGTCTTGATTCGCTTGACGCTGCTG`
y

Field: below-cutoff. Rule: recorded binding signal strictly less than 4 z-score. Subject: `CCGATTAACATCAATTTCCCATATGATGTTAATCGGGTCTTGATTCGCTTGACGCTGCTG`
y

Field: below-cutoff. Rule: recorded binding signal strictly less than 4 z-score. Subject: `CCGATTAACATCACCCGATTCCCTGATGTTAATCGGGTCTTGATTCGCTTGACGCTGCTG`
y

Field: below-cutoff. Rule: recorded binding signal strictly less than 4 z-score. Subject: `CCGATTAACATCACTAAAATCCCTGATGTTAATCGGGTCTTGATTCGCTTGACGCTGCTG`
y

Field: below-cutoff. Rule: recorded binding signal strictly less than 4 z-score. Subject: `CCGATTAACATCACATATACCCCTGATGTTAATCGGGTCTTGATTCGCTTGACGCTGCTG`
y

Field: below-cutoff. Rule: recorded binding signal strictly less than 4 z-score. Subject: `CCGATTAACATCACCCACGAGGGTGATGTTAATCGGGTCTTGATTCGCTTGACGCTGCTG`
y

Field: below-cutoff. Rule: recorded binding signal strictly less than 4 z-score. Subject: `CCGATTAACATCAGGAATCTACCTGATGTTAATCGGGTCTTGATTCGCTTGACGCTGCTG`
y

Field: below-cutoff. Rule: recorded binding signal strictly less than 4 z-score. Subject: `CCGATTAACATCAACGTATTCCCTGATGTTAATCGGGTCTTGATTCGCTTGACGCTGCTG`
y

Field: below-cutoff. Rule: recorded binding signal strictly less than 4 z-score. Subject: `CCGATTAACATCACGGTACTTCCTGATGTTAATCGGGTCTTGATTCGCTTGACGCTGCTG`
y

Field: below-cutoff. Rule: recorded binding signal strictly less than 4 z-score. Subject: `CCGATTAACATCAATTTCCCGCCTGATGTTAATCGGGTCTTGATTCGCTTGACGCTGCTG`
y

Field: below-cutoff. Rule: recorded binding signal strictly less than 4 z-score. Subject: `CCGATTAACATCAATATTTACCCTGATGTTAATCGGGTCTTGATTCGCTTGACGCTGCTG`
y

Field: below-cutoff. Rule: recorded binding signal strictly less than 4 z-score. Subject: `CCGATTAACATCACGTCCCCCCCTGATGTTAATCGGGTCTTGATTCGCTTGACGCTGCTG`
y

Field: below-cutoff. Rule: recorded binding signal strictly less than 4 z-score. Subject: `CCGATTAACATCAAAAAACACCCTGATGTTAATCGGGTCTTGATTCGCTTGACGCTGCTG`
n

Field: below-cutoff. Rule: recorded binding signal strictly less than 4 z-score. Subject: `CCGATTAACATCAATCACCCCCATGATGTTAATCGGGTCTTGATTCGCTTGACGCTGCTG`
y

Field: below-cutoff. Rule: recorded binding signal strictly less than 4 z-score. Subject: `CCGATTAACATCAGGGACCGCCCTGATGTTAATCGGGTCTTGATTCGCTTGACGCTGCTG`
y

Field: below-cutoff. Rule: recorded binding signal strictly less than 4 z-score. Subject: `CCGATTAACATCAGAAATTACCATGATGTTAATCGGGTCTTGATTCGCTTGACGCTGCTG`
y

Field: below-cutoff. Rule: recorded binding signal strictly less than 4 z-score. Subject: `CCGATTAACATCACCCGTTTCCCTGATGTTAATCGGGTCTTGATTCGCTTGACGCTGCTG`
y

Field: below-cutoff. Rule: recorded binding signal strictly less than 4 z-score. Subject: `CCGATTAACATCAGGGAGTCCCATGATGTTAATCGGGTCTTGATTCGCTTGACGCTGCTG`
y

Field: below-cutoff. Rule: recorded binding signal strictly less than 4 z-score. Subject: `CCGATTAACATCAAAGTACCCCCTGATGTTAATCGGGTCTTGATTCGCTTGACGCTGCTG`
n

The reported measurements were obtained from paper PMC5700166.
